test system: Enterococcus faecium; assay: In vitro antibacterial activity against Enterococcus faecium 02D31P2 VanTeiEry-R strain; assay type: functional
value-type: MIC (µg/mL)

1 = CCCCCc1cc(O[C@@H]2O[C@@H](C)[C@H](OC)[C@@H](OC(=O)c3ccc(C)[nH]3)[C@H]2O)c(C)c2oc(=O)c(C(=O)O)cc12
2 = CCCCCCCc1cc(O[C@@H]2O[C@@H](C)[C@H](OC)[C@@H](OC(=O)c3ccc(C)[nH]3)[C@H]2O)c(C)c2oc(=O)c(C(=O)O)cc12
Two entries are listed, 1 and 2 . Which one carries the higher MIC? Give the chosen item's label as your response.
1
(1: 2.5 µg/mL, 2: 0.6 µg/mL)

====

test system: Staphylococcus epidermidis; test: In vitro antibacterial activity against Staphylococcus epidermidis 012GO39 OxaTei-R strain; format: functional
value-type: MIC (µg/mL)

Below, 2 compounds whose answers are already recorded.
CO[C@@H]1[C@@H](OC(=O)c2ccc(C)[nH]2)[C@@H](O)[C@H](Oc2ccc3c(CC(=O)O)cc(=O)oc3c2C)OC1(C)C    2.5
CO[C@@H]1[C@@H](OC(N)=O)[C@@H](O)[C@H](Oc2ccc3c(O)c(NC(=O)c4ccc(O)c(CC=C(C)C)c4)c(=O)oc3c2C)OC1(C)C    0.08

I = CO[C@@H]1[C@@H](OC(=O)c2ccc(C)[nH]2)[C@@H](O)[C@H](Oc2cc(Cc3ccccc3)c3cc(C(=O)O)c(=O)oc3c2C)O[C@H]1C
II = CCCCCCCCCCCCc1cc(O[C@@H]2O[C@@H](C)[C@H](OC)[C@@H](OC(=O)c3ccc(C)[nH]3)[C@H]2O)c(C)c2oc(=O)c(C(=O)O)cc12
III = CCCc1cc(O[C@@H]2O[C@@H](C)[C@H](OC)[C@@H](OC(=O)c3ccc(C)[nH]3)[C@H]2O)c(C)c2oc(=O)c(C(=O)O)cc12
Order each entry by recorded MIC, climbing from the minimum. Please list the labels according to the requested order.
I, III, II

====

system: Enterococcus faecium; test: In vitro antibacterial activity against Enterococcus faecium 02D31P2 VanTeiEry-R strain; assay type: functional
Listed here are compounds together with their documented MIC.

CCCCCCCc1cc(O[C@@H]2O[C@@H](C)[C@H](OC)[C@@H](OC(=O)c3ccc(C)[nH]3)[C@H]2O)c(C)c2oc(=O)c(C(=O)NS(=O)(=O)c3ccccc3)cc12    2.5 µg/mL
CO[C@@H]1[C@@H](OC(=O)c2ccc(C)[nH]2)[C@@H](O)[C@H](Oc2ccc3c(CC(=O)O)cc(=O)oc3c2)O[C@H]1C    > 40 µg/mL
CO[C@@H]1[C@@H](OC(=O)c2ccc(C)[nH]2)[C@@H](O)[C@H](Oc2ccc3c(C(=O)O)cc(=O)oc3c2C)O[C@H]1C    > 40 µg/mL

# context switch: different compound, same MIC
For reference, reported MIC for CO[C@@H]1[C@@H](OC(=O)c2ccc(C)[nH]2)[C@@H](O)[C@H](Oc2ccc3c(CC(=O)O)cc(=O)oc3c2C)O[C@H]1C stands at > 40 µg/mL

====

tested on: Staphylococcus epidermidis; assay: In vitro antibacterial activity against Staphylococcus epidermidis 012GO39 OxaTei-R strain; assay type: functional
value-type: MIC

Below, 4 compounds whose answers are already recorded.
CO[C@@H]1[C@@H](OC(=O)c2ccc(C)[nH]2)[C@@H](O)[C@H](Oc2ccc3c(C)c(CCC(=O)O)c(=O)oc3c2C)O[C@H]1C    > 40 mg/L
CO[C@@H]1[C@@H](OC(=O)c2ccc(C)[nH]2)[C@@H](O)[C@H](Oc2ccc3c(C(=O)O)cc(=O)oc3c2C)O[C@H]1C    > 40 mg/L
COC(=O)Cc1cc(=O)oc2cc(O[C@@H]3O[C@@H](C)[C@H](OC)[C@@H](OC(=O)c4ccc(C)[nH]4)[C@H]3O)ccc12    > 40 mg/L
CO[C@@H]1[C@@H](OC(=O)c2ccc(C)[nH]2)[C@@H](O)[C@H](Oc2ccc3c(C)c(CC(=O)O)c(=O)oc3c2C)O[C@H]1C    > 40 mg/L

Form field MIC for item CO[C@@H]1[C@@H](OC(=O)c2ccc(C)[nH]2)[C@@H](O)[C@H](Oc2ccc3c(O)c(NC(=O)c4ccc(O)c(CC=C(C)C)c4)c(=O)oc3c2Cl)OC1(C)C on Staphylococcus epidermidis: < 0.04 mg/L

Form field MIC for item CCCCCc1cc(O[C@@H]2OC(C)(C)[C@H](OC)[C@@H](OC(=O)c3ccc(C)[nH]3)[C@H]2O)c(C)c2oc(=O)c(C(=O)O)cc12 on Staphylococcus epidermidis: < 0.04 mg/L

Form field MIC for item CO[C@@H]1[C@@H](OC(=O)c2ccc(C)[nH]2)[C@@H](O)[C@H](Oc2ccc3cc(C(=O)O)c(=O)oc3c2C)O[C@H]1C on Staphylococcus epidermidis: > 40 mg/L
